Molecular target: adenosine A1 receptor (Rattus norvegicus, UniProt P25099)
Construct: Whole brain minus cerebellum and brainstem from male Long Evans rats (150-200 g) was homogenized
Sequence (P25099 whole entry): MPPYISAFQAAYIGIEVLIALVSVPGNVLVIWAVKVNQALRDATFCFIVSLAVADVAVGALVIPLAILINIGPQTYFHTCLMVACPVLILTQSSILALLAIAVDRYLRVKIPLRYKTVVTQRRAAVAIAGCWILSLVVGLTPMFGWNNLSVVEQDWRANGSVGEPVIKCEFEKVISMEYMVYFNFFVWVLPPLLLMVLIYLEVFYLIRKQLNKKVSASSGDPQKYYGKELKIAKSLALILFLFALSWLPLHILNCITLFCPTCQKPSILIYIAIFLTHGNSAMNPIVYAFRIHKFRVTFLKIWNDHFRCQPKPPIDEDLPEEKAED
Test: Adenosine Receptor Binding - A1 Receptor Affinity (RBA1)
Conditions: [3H]-CHA, rat whole brain membranes; read-out: RBA-1
Description: Adenosine Receptor Binding - A1 Receptor Affinity (RBA1) […] Tissue homogenate (10 mg/ml) was incubated in 0.05 M Tris-HCI buffer pH 7.7 containing 1.0 nM [^3H]-N^6-cyclohexyladenosine (^3H]-CHA) with or without test agents in triplicate for one hour at 25°C. […] The radio-labeled ligand retained on the filter was measured by liquid scintillation spectrophotometry after shaking the filters for one hour or longer on a mechanical shaker in 10 ml of Beckman Ready Solv HP scintillation cocktail. […]
Attribute Measured: IC50 (nM)
Output spec: scalar in nM, unitless text.

May I ask what IC50 has been recorded for COc1cccc2c1CCC[C@H]2Nc1ncnc2c1ncn2[C@@H]1O[C@H](CO)[C@@H](O)[C@H]1O [Example 11] ?
444

Another: OC[C@H]1O[C@@H](n2cnc3c(NC4CCCc5ccccc54)ncnc32)C(O)[C@@H]1O (stereo in doubt) [Example 1, (R,S)-N^6-[1-Tetralinyl]-adenosine]
59

Another: OC[C@H]1O[C@@H](n2cnc3c(NCC4CCc5ccccc54)ncnc32)[C@H](O)[C@@H]1O (stereo partly drawn) [Example 21]
9

* * *

Tested on: Swiss-Webster male mice
Test: Mouse Activity and Screen Test Procedure (MAST): screen test (ST)
Type: in vivo
Settings: 1 mg/kg intraperitoneally, one hour postinjection
Attribute Measured: Screen test failure (%)
Output spec: scalar in %, unitless text.

# value lookup — system Swiss-Webster male mice, readout Screen test failure, item OC[C@H]1O[C@@H](n2cnc3c(NC4CCCc5ccccc54)ncnc32)C(O)[C@@H]1O (stereo in doubt) [Example 1, (R,S)-N^6-[1-Tetralinyl]-adenosine]
0

Another: COc1cccc2c1CCC[C@@H]2Nc1ncnc2c1ncn2[C@@H]1O[C@H](CO)[C@@H](O)[C@H]1O [Example 10]
22

Another: COc1cccc2c1CCCC2Nc1ncnc2c1ncn2[C@@H]1O[C@H](CO)[C@@H](O)[C@H]1O (stereo partly drawn) [Example 7]
0

* * *

Tested on: Swiss-Webster male mice
Test: Mouse Activity and Screen Test Procedure (MAST): screen test (ST)
Type: in vivo
Conditions: 3 mg/kg intraperitoneally, one hour postinjection
Attribute Measured: Screen test failure

May I ask what Screen test failure has been recorded for `OC[C@H]1O[C@@H](n2cnc3c(NCC4=CCCc5ccccc54)ncnc32)[C@H](O)[C@@H]1O` ?
22%

Another: COc1cccc2c1CCCC2Nc1ncnc2c1ncn2[C@@H]1O[C@H](CO)[C@@H](O)[C@H]1O (stereo partly drawn)
11%

Another: OC[C@H]1O[C@@H](n2cnc3c(NCC4(O)CCCc5ccccc54)ncnc32)[C@H](O)[C@@H]1O (stereo partly drawn)
0%

Another: `OC[C@H]1O[C@@H](n2cnc3c(NCC4=CCCCc5ccccc54)ncnc32)[C@H](O)[C@@H]1O`
0%

Another: OC[C@H]1O[C@@H](n2cnc3c(NCC4CCc5ccccc54)ncnc32)[C@H](O)[C@@H]1O (stereo partly drawn)
0%

Another: OC[C@H]1O[C@H](n2cnc3c(NC4CCCc5ccccc54)ncnc32)[C@H](O)[C@@H]1O (stereo partly drawn) [Example 3, (S)-N^6-[1-Tetralinyl]-adenosine]
0%

Another: OC[C@H]1O[C@@H](n2cnc3c(NC4CCCc5ccccc54)ncnc32)[C@H](O)[C@@H]1O (stereo partly drawn) [Example 2, (R)-N^6-[1-Tetralinyl]-adenosine]
22%

Another: OC[C@H]1O[C@@H](n2cnc3c(NCC4(O)CCc5ccccc54)ncnc32)[C@H](O)[C@@H]1O (stereo partly drawn)
11%

Another: CC(=O)Oc1ccccc1C(=O)OC[C@H]1O[C@@H](n2cnc3c(NC4CCCc5ccccc54)ncnc32)[C@H](O)[C@@H]1O (stereo partly drawn)
0%

Another: CCOC(=O)OC[C@H]1O[C@@H](n2cnc3c(NC4CCCc5ccccc54)ncnc32)[C@H](OC(=O)OCC)[C@@H]1OC(=O)OCC (stereo partly drawn)
0%

Another: OC[C@H]1O[C@@H](n2cnc3c(NCC4=CCc5ccccc54)ncnc32)[C@H](O)[C@@H]1O [Example 22, N^6-[1H-inden-3-yl]methyladenosine]
22%

Another: COc1ccc2c(c1)CCCC2Nc1ncnc2c1ncn2[C@@H]1O[C@H](CO)[C@@H](O)[C@H]1O (stereo partly drawn) [Example 6, N^6-[1-(6-Methoxy)-tetralinyl]-adenosine]
0%

Another: COc1ccc2c(c1)C(Nc1ncnc3c1ncn3[C@@H]1O[C@H](CO)[C@@H](O)[C@H]1O)CCC2 (single isomer, unassigned) [Example 8]
11%

Another: OC[C@H]1O[C@@H](n2cnc3c(NCC4CCCCc5ccccc54)ncnc32)[C@H](O)[C@@H]1O (stereo partly drawn)
0%

Another: OC[C@H]1O[C@@H](n2cnc3c(NCC4(O)CCCCc5ccccc54)ncnc32)[C@H](O)[C@@H]1O (stereo partly drawn)
0%

Another: COc1ccc2c(c1)C(Nc1ncnc3c1ncn3[C@H]1O[C@H](CO)[C@@H](O)[C@H]1O)CCC2 (stereo partly drawn)
11%

Another: `COc1cccc2c1CCC[C@@H]2Nc1ncnc2c1ncn2[C@@H]1O[C@H](CO)[C@@H](O)[C@H]1O`
22%

Another: COc1ccc2c(c1)C(Nc1ncnc3c1ncn3[C@@H]1O[C@H](CO)[C@@H](O)[C@H]1O)CCC2 (single isomer, unassigned) [Example 5, N6-[1-(7-Methoxy)-tetralinyl]-adenosine]
11%

Another: Cc1cc(C)c2c(c1)C(Nc1ncnc3c1ncn3[C@@H]1O[C@H](CO)[C@@H](O)[C@H]1O)CCC2 (stereo partly drawn)
11%

Another: CC(=O)OC[C@H]1O[C@@H](n2cnc3c(NC4CCCc5ccccc54)ncnc32)[C@H](O)[C@@H]1O (stereo partly drawn)
22%

Another: OC[C@H]1O[C@@H](n2cnc3c(NC4CCCc5ccc(O)cc54)ncnc32)[C@H](O)[C@@H]1O (stereo partly drawn)
0%

Another: OC[C@H]1O[C@@H](n2cnc3c(NC4CCCc5c(O)cccc54)ncnc32)[C@H](O)[C@@H]1O (stereo partly drawn) [Example 16, N^6-[1-(5-hydroxy)-tetralinyl]-adenosine]
0%

Another: CC1(C)O[C@@H]2[C@H](O1)[C@@H](CO)O[C@H]2n1cnc2c(NC3CCCc4ccccc43)ncnc21 (stereo partly drawn)
0%

Another: OC[C@H]1O[C@@H](n2cnc3c(NC4CCCc5ccccc54)ncnc32)C(O)[C@@H]1O (stereo in doubt) [Example 1, (R,S)-N^6-[1-Tetralinyl]-adenosine]
0%

* * *

System: Swiss-Webster male mice
Test: Mouse Activity and Screen Test Procedure (MAST): locomotor activity in actophotometer
Format: in vivo
Settings: 1 mg/kg intraperitoneally, one hour prior to testing
Attribute Measured: Inhibition of mouse locomotor activity
Answer by giving the amount and then stating its unit.

May I ask what Inhibition of mouse locomotor activity has been recorded for OC[C@H]1O[C@@H](n2cnc3c(NCC4=CCc5ccccc54)ncnc32)[C@H](O)[C@@H]1O [Example 22, N^6-[1H-inden-3-yl]methyladenosine] ?
76%

Another: COc1cccc2c1CCCC2Nc1ncnc2c1ncn2[C@@H]1O[C@H](CO)[C@@H](O)[C@H]1O (stereo partly drawn)
22%

Another: COc1ccc2c(c1)CCCC2Nc1ncnc2c1ncn2[C@@H]1O[C@H](CO)[C@@H](O)[C@H]1O (stereo partly drawn) [Example 6, N^6-[1-(6-Methoxy)-tetralinyl]-adenosine]
22%

Another: `COc1cccc2c1CCC[C@@H]2Nc1ncnc2c1ncn2[C@@H]1O[C@H](CO)[C@@H](O)[C@H]1O`
65%

Another: Cc1cc(C)c2c(c1)C(Nc1ncnc3c1ncn3[C@@H]1O[C@H](CO)[C@@H](O)[C@H]1O)CCC2 (stereo partly drawn)
44%

Another: OC[C@H]1O[C@H](n2cnc3c(NC4CCCc5ccccc54)ncnc32)[C@H](O)[C@@H]1O (stereo partly drawn) [Example 3, (S)-N^6-[1-Tetralinyl]-adenosine]
30%

* * *

Consider the following compounds; for each one, report its Inhibition of mouse locomotor activity.
System: Swiss-Webster male mice
Test: Mouse Activity and Screen Test Procedure (MAST): locomotor activity in actophotometer
Format: in vivo
Conditions: 10 mg/kg intraperitoneally, one hour prior to testing
Output spec: scalar in %, unitless text.

May I ask what Inhibition of mouse locomotor activity has been recorded for OC[C@H]1O[C@H](n2cnc3c(NC4CCCc5ccccc54)ncnc32)[C@H](O)[C@@H]1O (stereo partly drawn) [Example 3, (S)-N^6-[1-Tetralinyl]-adenosine] ?
95

Another: COc1ccc2c(c1)CCCC2Nc1ncnc2c1ncn2[C@@H]1O[C@H](CO)[C@@H](O)[C@H]1O (stereo partly drawn) [Example 6, N^6-[1-(6-Methoxy)-tetralinyl]-adenosine]
62

Another: OC[C@H]1O[C@@H](n2cnc3c(NCC4(O)CCc5ccccc54)ncnc32)[C@H](O)[C@@H]1O (stereo partly drawn)
89

Another: `OC[C@H]1O[C@@H](n2cnc3c(NCC4=CCCc5ccccc54)ncnc32)[C@H](O)[C@@H]1O`
94

Another: OC[C@H]1O[C@@H](n2cnc3c(NCC4(O)CCCc5ccccc54)ncnc32)[C@H](O)[C@@H]1O (stereo partly drawn)
16

Another: COc1ccc2c(c1)C(Nc1ncnc3c1ncn3[C@@H]1O[C@H](CO)[C@@H](O)[C@H]1O)CCC2 (single isomer, unassigned) [Example 8]
93

Another: OC[C@H]1O[C@@H](n2cnc3c(NC4CCCc5ccccc54)ncnc32)C(O)[C@@H]1O (stereo in doubt) [Example 1, (R,S)-N^6-[1-Tetralinyl]-adenosine]
98

Another: COc1ccc2c(c1)C(Nc1ncnc3c1ncn3[C@@H]1O[C@H](CO)[C@@H](O)[C@H]1O)CCC2 (single isomer, unassigned) [Example 5, N6-[1-(7-Methoxy)-tetralinyl]-adenosine]
91

Another: `COc1cccc2c1CCC[C@@H]2Nc1ncnc2c1ncn2[C@@H]1O[C@H](CO)[C@@H](O)[C@H]1O`
95

Another: Cc1cc(C)c2c(c1)C(Nc1ncnc3c1ncn3[C@@H]1O[C@H](CO)[C@@H](O)[C@H]1O)CCC2 (stereo partly drawn)
91

Another: OC[C@H]1O[C@@H](n2cnc3c(NC4CCCc5ccc(O)cc54)ncnc32)[C@H](O)[C@@H]1O (stereo partly drawn)
88

Another: OC[C@H]1O[C@@H](n2cnc3c(NCC4=CCc5ccccc54)ncnc32)[C@H](O)[C@@H]1O [Example 22, N^6-[1H-inden-3-yl]methyladenosine]
96

Another: `OC[C@H]1O[C@@H](n2cnc3c(NCC4=CCCCc5ccccc54)ncnc32)[C@H](O)[C@@H]1O`
31

Another: COc1cccc2c1CCCC2Nc1ncnc2c1ncn2[C@@H]1O[C@H](CO)[C@@H](O)[C@H]1O (stereo partly drawn)
97

Another: OC[C@H]1O[C@@H](n2cnc3c(NCC4(O)CCCCc5ccccc54)ncnc32)[C@H](O)[C@@H]1O (stereo partly drawn)
33

Another: OC[C@H]1O[C@@H](n2cnc3c(NC4CCCc5c(O)cccc54)ncnc32)[C@H](O)[C@@H]1O (stereo partly drawn) [Example 16, N^6-[1-(5-hydroxy)-tetralinyl]-adenosine]
23

Another: OC[C@H]1O[C@@H](n2cnc3c(NCC4CCCCc5ccccc54)ncnc32)[C@H](O)[C@@H]1O (stereo partly drawn)
19

Another: CCOC(=O)OC[C@H]1O[C@@H](n2cnc3c(NC4CCCc5ccccc54)ncnc32)[C@H](OC(=O)OCC)[C@@H]1OC(=O)OCC (stereo partly drawn)
91

Another: OC[C@H]1O[C@@H](n2cnc3c(NCC4CCc5ccccc54)ncnc32)[C@H](O)[C@@H]1O (stereo partly drawn)
82

Another: CC1CCc2ccccc2C1Nc1ncnc2c1ncn2[C@@H]1O[C@H](CO)[C@@H](O)[C@H]1O (stereo partly drawn) [Example 4, N^6-[1-(2-Methyl)-tetralinyl]-adenosine]
97

Another: CC(=O)OC[C@H]1O[C@@H](n2cnc3c(NC4CCCc5ccccc54)ncnc32)[C@H](O)[C@@H]1O (stereo partly drawn)
98

Another: CC(=O)Oc1ccccc1C(=O)OC[C@H]1O[C@@H](n2cnc3c(NC4CCCc5ccccc54)ncnc32)[C@H](O)[C@@H]1O (stereo partly drawn)
94

Another: COc1ccc2c(c1)C(Nc1ncnc3c1ncn3[C@H]1O[C@H](CO)[C@@H](O)[C@H]1O)CCC2 (stereo partly drawn)
−11

Another: CC1(C)O[C@@H]2[C@H](O1)[C@@H](CO)O[C@H]2n1cnc2c(NC3CCCc4ccccc43)ncnc21 (stereo partly drawn)
−1
